method: NCI Yeast Anticancer Drug Screen. Data for the rad50 strain (AID 155)
cond: S. cerevisiae rad50 strain growth inhibition; at 50.0 µM
About 79,000 compounds went through this panel and 15% of them were active in at least one assay; those are over-represented in the sample as a whole. Calls of active or inactive are those of the source. No stated cut-off is given here; in the data, active means growth inhibition above about 70%; inactive means the rest.
Outcome codes: True for active, False for inactive

[[record]]
molecule = "CC(=O)Nc1ccc(S(=O)(=O)NNC(=O)C(=O)Nc2cccc(Cl)c2)cc1"
classification = "False"

[[record]]
molecule = "CCCCC1C/C=C/C=C/C=C/C=C/C(OC2OC(C)C(O)C(N)C2O)CC2OC(O)(CC(O)CC3OC3/C=C/C(=O)O1)CC(O)C2C(=O)O (configuration not stated)"
classification = "False"

[[record]]
molecule = "CCCC(=O)OC1=CC(=O)c2ccccc2C1=O"
classification = "False"

[[record]]
molecule = "CCOC(=O)C1C(=O)CC1(C)C (configuration not stated)"
classification = "False"

[[record]]
molecule = "CC(C)C[C@H](NC(=O)[C@H](CCc1ccccc1)NC(=O)c1ccc2ccccc2n1)B(O)O"
classification = "False"

[[record]]
molecule = "CNC(=O)NC(C)(C)CCCCC(C)(C)NC(=O)NC"
classification = "False"

[[record]]
molecule = "CSc1nnc(CF)c(=O)[nH]1"
classification = "False"

[[record]]
molecule = "COc1ccc([N+](=O)[O-])cc1NC(=O)c1ccc(Cl)cc1"
classification = "False"

[[record]]
molecule = "CC(/C=C/c1ccccc1)=N\\N=C(C)\\C=C\\c1ccccc1"
classification = "False"

[[record]]
molecule = "CCCCCCCCCCCCCCCC[N+](C)(C)CCN=[N+]=[N-]"
classification = "True"

[[record]]
molecule = "C=CCOC(=O)c1cccc(C(=O)OCC=C)c1"
classification = "False"

[[record]]
molecule = "NC(=O)ON=C1CCN(Cc2ccccc2)CC1"
classification = "False"

[[record]]
molecule = "CC(C)COC(=O)c1ccc(C(C)C)cc1"
classification = "False"

[[record]]
molecule = "Nc1nc(/C=C(/O)c2ccccc2)c2ncn(C3OC(CO)C(O)C3O)c2n1 (configuration not stated)"
classification = "False"

[[record]]
molecule = "COc1ccc(NC(=O)CC(=O)n2nc(C)c(N=Nc3ccccc3C(=O)O)c2C)cc1"
classification = "False"

[[record]]
molecule = "COc1cc(C(c2cc3c(cc2O)OCO3)n2ccnc2)cc(OC)c1OC (configuration not stated)"
classification = "False"

[[record]]
molecule = "O=C1c2ccccc2C(=O)N1CCn1nc(-c2ccccc2)cc(-c2ccccc2)c1=O"
classification = "False"

[[record]]
molecule = "CC(=O)OCCCC(=O)Nc1cc([N+](=O)[O-])ccc1OCc1ccccc1"
classification = "False"

[[record]]
molecule = "O=c1cc[nH]c2cc(C(F)(F)F)ccc12"
classification = "False"

[[record]]
molecule = "COC1OC(=O)c2cccc3cccc1c23 (configuration not stated)"
classification = "False"

[[record]]
molecule = "CC(C)(C)c1ccc(O)c(Cl)c1"
classification = "False"

[[record]]
molecule = "CCOC(=O)NCc1cccc2ccccc12"
classification = "False"

[[record]]
molecule = "CC(=O)NC1CC(C)(C)NC(C)(C)C1"
classification = "False"

[[record]]
molecule = "CC(C)NC1(C(N)=O)CCN(Cc2ccccc2)CC1"
classification = "False"

[[record]]
molecule = "COc1ccc(C(=O)N2CCOCC2)cc1"
classification = "False"

[[record]]
molecule = "O=C(O)c1[nH]c(=O)[nH]c(=O)c1Br"
classification = "False"

[[record]]
molecule = "CCN(CC)CCOC(=O)C(S)(c1ccccc1)C1CCCCC1 (configuration not stated)"
classification = "False"

[[record]]
molecule = "CC(=O)OC(C)=O"
classification = "False"

[[record]]
molecule = "CC1(CCl)Nc2ccccc2C(=O)N1c1ccc(F)cc1 (configuration not stated)"
classification = "False"

[[record]]
molecule = "CC1=N[C@](C)(C2CC3C=CC2C3=O)COC1=O (some centres not stated)"
classification = "False"

[[record]]
molecule = "O=C(O)/C=C\\c1cccc([N+](=O)[O-])c1"
classification = "False"

[[record]]
molecule = "O=P(O)(O)OC1C(OP(=O)(O)O)C(OP(=O)(O)O)C(OP(=O)(O)O)C(OP(=O)(O)O)C1OP(=O)(O)O.[Zn+2] (configuration not stated)"
classification = "False"

[[record]]
molecule = "COC(=O)Nc1cn2nc(C)sc2n1"
classification = "False"

[[record]]
molecule = "Cc1cccc(C)c1NC(=O)C(=O)CC(=O)CO"
classification = "False"

[[record]]
molecule = "NNC(=O)c1cccc(C(=O)NN)n1"
classification = "False"

[[record]]
molecule = "NC(=O)N=Nc1ccc(Br)cc1"
classification = "False"

[[record]]
molecule = "Cc1ccc(/C=N/n2c(Cc3ccccc3)n[nH]c2=O)cc1"
classification = "False"

[[record]]
molecule = "O=C(NC(CO)C(=O)O)c1ccccc1 (configuration not stated)"
classification = "False"

[[record]]
molecule = "CCCCCCCCCC(C(=O)OCC)(C(=O)OCC)C1CCCC1"
classification = "False"

[[record]]
molecule = "C[N+]1(C)N=C([O-])N(c2ccccc2F)C1=O"
classification = "False"

[[record]]
molecule = "CCc1c(O)cc(=O)oc1-c1ccc(OC)c(OC)c1"
classification = "False"

[[record]]
molecule = "C1CCc2[nH]nc(-c3n[nH]c4c3CCCCC4)c2CC1"
classification = "False"

